Values were extracted from PubChem BioAssay (NCI).

- System: A498 renal
- protocolNotes: NCI-60 one-dose screen, 48 h
- conditionsUsed: 10 µM unless noted
The panel holds about 83,000 compounds, 20% with a hit somewhere; the sample as a whole holds those more often. Active and inactive are the calls of the source. How the source made its calls: active means growth percent below 10; inactive means the rest.
Classes used: active, inactive

[[record]]
molecule = "Cc1ccc2sc3c(NCCCN)nc4ccccc4c3c(=O)c2c1"
label = "inactive"

[[record]]
molecule = "Cc1c(C(=O)NCCCc2ccccc2)sc2ncc(-c3ccc(Br)cc3)n12"
label = "inactive"

[[record]]
molecule = "CCOc1cccc(NC2=C(Br)C(=O)C(C)=C(C)C2=O)c1"
label = "inactive"

[[record]]
molecule = "O=C1c2cccc3cccc(c23)C(=O)N1Nc1nc(N2CCOCC2)nc(N2CCN(c3ccccc3)CC2)n1"
label = "active"

[[record]]
molecule = "COc1ccc(C(=O)/C=C/c2sc(Cl)nc2Cl)cc1"
label = "inactive"

[[record]]
molecule = "CC1=NN(c2ccc(S(=O)(=O)O)cc2)C(=O)C1N=Nc1ccc(-c2ccc(N=Nc3ccc(OS(=O)(=O)c4ccc(C)cc4)cc3)c(S(=O)(=O)O)c2)cc1 (stereo not given)"
label = "inactive"

[[record]]
molecule = "CN(C)CCS(=O)(=O)Nc1cc(-c2ccc3ncc(C#N)c(Nc4ccc(F)c(Cl)c4)c3c2)cnc1Cl"
label = "active"

[[record]]
molecule = "COc1cc(/C=C/c2ccccc2)cc(OC)c1"
label = "inactive"

[[record]]
molecule = "Cc1cc(=O)oc2cc(OC(=O)CN3CCN(C)CC3)ccc12"
label = "inactive"

[[record]]
molecule = "Cc1nn(-c2ccccc2)c(-n2ccnc2)c1/C=N/Nc1nc(-c2ccc(F)cc2)cs1"
label = "inactive"

[[record]]
molecule = "CCCCn1c(=O)c(-c2cc(-c3ccc(Cl)cc3)nc(-c3ccc(Cl)cc3)c2)cc2cc(C)ccc21"
label = "inactive"

[[record]]
molecule = "N#Cc1c(-c2ccc(Cl)cc2)nc(NCCO)[nH]c1=O"
label = "inactive"

[[record]]
molecule = "CCOC(=O)c1cnn2c3ccccc3n(S(=O)(=O)c3ccc(OC)cc3)c12"
label = "active"

[[record]]
molecule = "COc1ccc2nc(NC(=O)c3cccnc3Nc3ccc(S(N)(=O)=O)cc3)sc2c1"
label = "inactive"

[[record]]
molecule = "C#C[C@]1(O)CC[C@H]2[C@@H]3CC=C4c5sc(Nc6ccccc6)nc5CC[C@]4(C)[C@H]3CC[C@@]21C"
label = "active"

[[record]]
molecule = "CCCCNC(=O)Oc1ccc(/C(=C(\\C)c2ccc(Cl)cc2)c2ccc(OCCN(CC)CC)cc2)cc1"
label = "inactive"

[[record]]
molecule = "COc1ccc(-c2cc3c4c(nc5ccccc5c4c2)CC(c2cc(OC)c(OC)c(OC)c2)O3)cc1 (stereo not given)"
label = "inactive"

[[record]]
molecule = "COc1ccc(CN2c3ccccc3CCc3ccccc32)cc1F"
label = "active"

[[record]]
molecule = "NCCNc1nc2ccccc2c2c(=O)c3cccc(F)c3sc12"
label = "inactive"

[[record]]
molecule = "CCOC(=O)Cn1c(=O)c2c(c3ccccc3n2C)n2nnc(-c3ccccc3)c12"
label = "inactive"

[[record]]
molecule = "CCOC(=O)/C(C#N)=C\\Nc1ccc2ncnc(Nc3ccc(Cl)cc3Cl)c2c1"
label = "inactive"

[[record]]
molecule = "CCCCn1c(=O)c(-c2cc(-c3ccc(Cl)cc3)nc(-c3ccc(Cl)cc3)c2)cc2cc(Cl)ccc21"
label = "inactive"

[[record]]
molecule = "CCOC(=O)CC1C(COC(=O)NC)OC(n2cnc3c(NC(=O)Nc4ccccc4)ncnc32)C1O[Si](C)(C)C(C)(C)C (stereo not given)"
label = "inactive"

[[record]]
molecule = "COc1ccc(-c2nc(NCCO)[nH]c(=O)c2C#N)cc1"
label = "inactive"

[[record]]
molecule = "CC([C@H]1CCC2C3CCC4C[C@@H](NC=O)CC[C@]4(C)C3CC[C@@]21C)N(C)C (stereo not given in full)"
label = "inactive"

[[record]]
molecule = "COc1ccc(CN2c3ccccc3Sc3ccccc32)c(F)c1"
label = "active"

[[record]]
molecule = "N#Cc1c(Nc2cccc(Cl)c2)sc(C(=O)c2cc3cc(Cl)ccc3o2)c1N"
label = "inactive"

[[record]]
molecule = "O=C(O)C(c1ccccc1)N1C(=O)CSC1=S (stereo not given)"
label = "inactive"

[[record]]
molecule = "CS(=O)(=O)Nc1cc(-c2ccc3ncnc(Nc4cccc(Cl)c4F)c3c2)cnc1Cl"
label = "active"

[[record]]
molecule = "CNCCCNc1nc2ccccc2c2c(=O)c3cc(F)ccc3sc12"
label = "inactive"

[[record]]
molecule = "O=C(/C=C/c1cccc2ccccc12)c1ccc(NC(=O)c2ccccc2CN2C(=O)c3ccccc3C2=O)cc1"
label = "inactive"

[[record]]
molecule = "C/C(=N/NC(N)=S)c1sc(Nc2cccc(Cl)c2)nc1C"
label = "inactive"

[[record]]
molecule = "O=C1COCCN1c1ccc(NCc2cn(C(=O)c3ccc(Cl)cc3)c3ccccc23)cc1"
label = "active"

[[record]]
molecule = "O=C(Nc1ccc(-c2nc(-c3cccc(OCCN4CCOCC4)c3)c(-c3ccnc(Br)c3)[nH]2)cc1)c1ccccc1"
label = "active"

[[record]]
molecule = "CCc1cccc2c3c(sc12)C(c1ccc(F)cc1)C(C#N)=C(N)O3 (stereo not given)"
label = "active"

[[record]]
molecule = "Cc1nc(NC(=O)COc2ccc(/C=C3\\Cc4ccc(Cl)cc4C3=O)cc2)sc1C"
label = "inactive"

[[record]]
molecule = "COc1cccc(-c2nc(-c3ccc(NC(=O)OC(C)C)cc3)[nH]c2-c2ccnc(Br)c2)c1"
label = "active"

[[record]]
molecule = "CNc1ccc(Nc2cccc(C)c2)c2c1C(=O)c1ccccc1C2=O"
label = "inactive"

[[record]]
molecule = "CCCCCCN1C(=O)/C(=c2\\sc3n(c2=O)C2C(NN=3)N(CC)C(=O)N2CC)c2ccccc21 (stereo not given)"
label = "active"

[[record]]
molecule = "CC1CN(C2CCCCC2)C(=S)N(c2ccccc2)C1=O (stereo not given)"
label = "inactive"

